- Test: MRT (0 to t) in ICR mouse at 20 mg/kg, ip measured upto 24 hrs by LC-MS/MS analysis
- Condition Description: in vivo
Value Type: MRT last at 24 h (h)
Entry rule: numbers only, all in h.

Please give the measured MRT last at 24 h for this compound: Cc1ccc(Nc2nc(Cl)nc3c2ncn3Cc2ccc(C(=O)Nc3ccccc3N)cc2)cc1
4.54

* * *

- Test: AUC (0 to t) in ICR mouse at 4 mg/kg, iv measured upto 24 hrs by LC-MS/MS analysis
- Type: ADME, organism-based
- Set-up: route intravenous, dose 4 mg/kg, time <=24
- Condition Description: in vivo
Value Type: AUC(0-t) at 24 h (ng·h/mL)
Entry rule: numbers only, all in ng·h/mL.

Please give the measured AUC(0-t) at 24 h for this compound: Cc1ccc(Nc2nc(Cl)nc3c2ncn3Cc2ccc(C(=O)Nc3ccccc3N)cc2)cc1
2850

* * *

Readings of inhibition at 8 µM for the listed compounds
- Tested on: NCI-H460
- Test: Antiproliferative activity against human H460 cells assessed as reduction in cell growth at 8 uM incubated for 72 hrs by CCK-8 assay relative to control
- Type: functional
Mention the unit after the number when you answer.

Below, each entry is followed by its recorded inhibition at 8 µM result.
- Smiles Repr: "Nc1ccccc1NC(=O)c1ccc(Cn2cnc3c(Nc4cccc(OC(F)(F)F)c4)nc(Cl)nc32)cc1"
  Reported Value: "62.4%"
- Smiles Repr: "Nc1ccccc1NC(=O)c1ccc(Cn2cnc3c(NCc4ccccc4)nc(Cl)nc32)cc1"
  Reported Value: "61.2%"
- Smiles Repr: "Nc1ccccc1NC(=O)/C=C/c1ccc(Cn2cnc3c(NC4CCCCC4)nc(Cl)nc32)cc1"
  Reported Value: "24.9%"
- Smiles Repr: "CC1CCN(c2nc(Cl)nc3c2ncn3Cc2ccc(C(=O)Nc3ccccc3N)cc2)CC1"
  Reported Value: "40.9%"

Reported inhibition at 8 µM for NCI-H460, given Nc1ccccc1NC(=O)c1ccc(Cn2cnc3c(N4CCOCC4)nc(Cl)nc32)cc1 ?
47%

Reported inhibition at 8 µM for NCI-H460, given CC1CCN(c2nc(Cl)nc3c2ncn3Cc2ccc(/C=C/C(=O)Nc3ccccc3N)cc2)CC1 ?
10.8%

Reported inhibition at 8 µM for NCI-H460, given Nc1ccccc1NC(=O)/C=C/c1ccc(Cn2cnc3c(Nc4ccccc4)nc(Cl)nc32)cc1 ?
28.7%

Reported inhibition at 8 µM for NCI-H460, given Nc1ccccc1NC(=O)c1ccc(Cn2cnc3c(Nc4ccc(-c5ccccn5)cc4)nc(Cl)nc32)cc1 ?
30.8%

Reported inhibition at 8 µM for NCI-H460, given Nc1ccccc1NC(=O)/C=C/c1ccc(Cn2cnc3c(Nc4cccc(Cl)c4)nc(Cl)nc32)cc1 ?
29.4%

* * *

- Test: Tmax in ICR mouse at 20 mg/kg, ip measured upto 24 hrs by LC-MS/MS analysis
- Condition Description: in vivo
Value Type: Tmax (h)
Entry rule: numbers only, all in h.

Please give the measured Tmax for this compound: Cc1ccc(Nc2nc(Cl)nc3c2ncn3Cc2ccc(C(=O)Nc3ccccc3N)cc2)cc1
2

* * *

- Test: Cmax in ICR mouse at 20 mg/kg, ip measured upto 24 hrs by LC-MS/MS analysis
- Condition Description: in vivo
Value Type: Cmax (ng/mL)
Entry rule: numbers only, all in ng/mL.

Please give the measured Cmax for this compound: Cc1ccc(Nc2nc(Cl)nc3c2ncn3Cc2ccc(C(=O)Nc3ccccc3N)cc2)cc1
1360
